Recorded EC50, one value per entry.
Target: G-protein coupled receptor 3 (Homo sapiens)
Assay: Total binding affinity to N-terminal 3xHA/Nluc-tagged full-length wild-type human GPR3 expressed in HEK293A cells using furimazine as substrate measured for 3 hrs by NanoBRET assay
Assay type: cell-based, HEK293-A

Solved cases below.
COCC[N+]1=C(/C=C/C=C2/N(CCCCCC(=O)NCCOCCOCCOCCOc3cccc(-c4cc(NCc5ccc(Cl)cc5OC(C)C)n5ncnc5n4)c3)c3ccc(S(=O)(=O)O)cc3C2(C)CCCS(=O)(=O)O)C(C)(CCCS(=O)(=O)O)c2cc(S(=O)(=O)[O-])ccc21 (stereo not drawn) = > 31.6 µM
COCC[N+]1=C(/C=C/C=C2/N(CCCCCC(=O)NCCOCCOCCOCCOCCOCCOc3ccccc3-c3cc(NCc4ccc(Cl)cc4OC(C)C)n4ncnc4n3)c3ccc(S(=O)(=O)O)cc3C2(C)CCCS(=O)(=O)O)C(C)(CCCS(=O)(=O)O)c2cc(S(=O)(=O)[O-])ccc21 (stereo not drawn) = > 31.6 µM

Assign EC50 to the following record: CC(C)Oc1cc(Cl)ccc1CNc1cc(-c2ccccc2OCCOCCOCCOCCNC(=O)c2ccc(-c3c4ccc(N(C)C)cc4[o+]c4cc(N(C)C)ccc34)c(C(=O)[O-])c2)nc2ncnn12
3.39 µM

---

Biological target: G-protein coupled receptor 3 (Homo sapiens, UniProt P46089)
Sequence (P46089 whole entry): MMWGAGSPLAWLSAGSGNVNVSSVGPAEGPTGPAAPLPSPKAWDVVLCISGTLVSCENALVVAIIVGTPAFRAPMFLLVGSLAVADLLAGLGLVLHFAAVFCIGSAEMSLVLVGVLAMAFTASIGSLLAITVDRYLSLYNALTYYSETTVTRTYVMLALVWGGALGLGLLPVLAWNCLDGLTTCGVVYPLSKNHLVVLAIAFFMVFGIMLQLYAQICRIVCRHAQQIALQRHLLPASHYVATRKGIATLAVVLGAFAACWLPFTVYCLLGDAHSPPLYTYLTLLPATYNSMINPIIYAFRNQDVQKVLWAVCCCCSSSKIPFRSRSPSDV
Assay: Total binding affinity to N-terminal 3xHA/Nluc-tagged full-length wild-type human GPR3 expressed in HEK293A cells using furimazine as substrate measured for 3 hrs by NanoBRET assay
Assay type: cell-based, HEK293-A
EC50 listing for selected compounds.

These solved cases illustrate the format of a correct answer.
CC(C)Oc1cc(Cl)ccc1CNc1cc(-c2cccc(OCCCCCCNC(=O)c3ccc(-c4c5ccc(N(C)C)cc5[o+]c5cc(N(C)C)ccc45)c(C(=O)[O-])c3)c2)nc2ncnn12 = 4.47 µM
CC(C)Oc1cc(Cl)ccc1CNc1cc(-c2ccc(OCCOCCOCCOCCNC(=O)c3ccc(-c4c5ccc(N(C)C)cc5[o+]c5cc(N(C)C)ccc45)c(C(=O)[O-])c3)cc2)nc2ncnn12 = > 10 µM
CC(C)Oc1cc(Cl)ccc1CNc1cc(-c2ccc(OCCCCCCNC(=O)c3ccc(-c4c5ccc(N(C)C)cc5[o+]c5cc(N(C)C)ccc45)c(C(=O)[O-])c3)cc2)nc2ncnn12 = 11.2 µM
CC(C)Oc1cc(Cl)ccc1CNc1cc(-c2ccccc2OCCCCCCNC(=O)c2ccc(-c3c4ccc(N(C)C)cc4[o+]c4cc(N(C)C)ccc34)c(C(=O)[O-])c2)nc2ncnn12 = 0.891 µM

We next turn to a different compound, shown below.
For the compound CC(C)Oc1cc(Cl)ccc1CNc1cc(-c2ccccc2OCCOCCOCCOCCOCCOCCNC(=O)c2ccc(-c3c4ccc(N(C)C)cc4[o+]c4cc(N(C)C)ccc34)c(C(=O)[O-])c2)nc2ncnn12 , report EC50.
4.47 µM

---

Biological target: UniProt P46095
Sequence (P46095 whole entry): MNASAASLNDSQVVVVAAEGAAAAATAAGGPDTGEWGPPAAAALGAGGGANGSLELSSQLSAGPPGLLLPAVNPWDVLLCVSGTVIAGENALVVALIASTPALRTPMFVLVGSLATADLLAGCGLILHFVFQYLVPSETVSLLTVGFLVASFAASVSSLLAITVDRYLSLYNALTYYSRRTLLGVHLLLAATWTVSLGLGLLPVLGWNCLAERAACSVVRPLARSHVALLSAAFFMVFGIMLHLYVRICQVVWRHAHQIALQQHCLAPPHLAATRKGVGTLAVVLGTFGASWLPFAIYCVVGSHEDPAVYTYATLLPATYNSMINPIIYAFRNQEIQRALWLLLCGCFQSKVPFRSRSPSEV
Experiment: Competitive total binding affinity to full-length wild-type human brain GPR6 expressed in HEK293A cells using furimazine as substrate at 1 uM measured for 3 hrs in presence of CVN424 by NanoBRET assay
readout: pIC50
Keep it numeric: pIC50 is minus log10 of the concentration in mol/L.

Give me measured pIC50, please, for this molecule: CC(C)Oc1cc(Cl)ccc1CNc1cc(-c2ccccc2OCCCCCCNC(=O)c2ccc(-c3c4ccc(N(C)C)cc4[o+]c4cc(N(C)C)ccc34)c(C(=O)[O-])c2)nc2ncnn12
6.67

---

Target: G-protein coupled receptor 3 (Homo sapiens, UniProt P46089)
Test: Modulation of N-terminal 3xHA/Nluc-tagged full-length wild-type human GPR3 expressed in HEK293A cells using furimazine as substrate at 1 uM measured for 3 hrs in presence of DPI by NanoBRET assay
Assay type: cell-based, HEK293-A
readout: pEC50
pEC50 here is simply -log10 of the concentration when that concentration is written in mol/L.

For the compound CC(C)Oc1cc(Cl)ccc1CNc1cc(-c2ccccc2OCCCCCCNC(=O)c2ccc(-c3c4ccc(N(C)C)cc4[o+]c4cc(N(C)C)ccc34)c(C(=O)[O-])c2)nc2ncnn12 , give its reported pEC50.
5.85
